Listing of entries alongside the reported pKd.
system_name: DCAF1 WD40 domain (residues 1077-1390) (Homo sapiens, UniProt Q9Y4B6)
Construct: DCAF1 WD40 domain (residues 1077-1390)
Sequence (Q9Y4B6 1077-1390): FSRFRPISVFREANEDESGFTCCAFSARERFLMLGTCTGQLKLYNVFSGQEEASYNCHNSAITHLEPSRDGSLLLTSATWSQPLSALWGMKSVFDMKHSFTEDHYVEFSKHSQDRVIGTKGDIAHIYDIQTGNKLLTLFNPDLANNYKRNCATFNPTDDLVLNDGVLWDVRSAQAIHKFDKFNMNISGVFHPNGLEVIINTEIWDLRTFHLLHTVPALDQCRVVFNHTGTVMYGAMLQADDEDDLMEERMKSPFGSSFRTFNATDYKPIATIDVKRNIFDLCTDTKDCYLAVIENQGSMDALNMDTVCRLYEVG
method: DCAF1 binding assay by SPR (Biacore 8K+), DCAF1-3 KD
condition: 25 °C, read-out: DCAF1-3 SPR (KD)
pKd: −log10 of the molar value.

> print(dat)
                                   compound  reported.endpoint  obs.value
1  NC(=O)C[C@H](NC(=O)c1cn[nH]c1-c1c(F)cccc1C(F)(F)F)c1cccc(Cl)c1 [I-630]                pKd     > 5.00

The reported pKd of the compound Cc1c(F)ccc(F)c1-c1c(C(=O)N[C@@H](CC(=O)N(C)C)c2cccc(Cl)c2)c[nH]c1C(=O)COCCOCCOCCOCCOCCN [I-822] was > 5.00

The reported pKd of the compound Fc1cccc(N2CC[C@@H]3CCCc4cnc(N5CCOCC5)cc4N[C@H]3C2)c1 [I-363] was < 3.70

The reported pKd of the compound COc1ccc(-c2[nH]ncc2C(=O)NC(C)C(=O)Nc2ccccc2)cc1 (stereo not shown) [I-838] was < 3.70

----------
system_name: DCAF1 WD40 domain (residues 1077-1390) (Homo sapiens, UniProt Q9Y4B6)
Construct: DCAF1 WD40 domain (residues 1077-1390)
method: DCAF1 binding assay by SPR (Biacore 8K+), DCAF1-3 KD
condition: 25 °C, read-out: DCAF1-3 SPR (KD)
pKd: −log10 of the molar value.
reported_endpoint: pKd

Recorded results for 3 molecules are shown here.
> print(dat)
                              smiles.record  reported.endpoint     obs.value
1  Cc1nc(N2CCC[C@@H](Nc3cc(N4CCOCC4)ccn3)C2)ccc1CO                pKd        < 3.70
2  NC[C@@H]1C[C@H](Nc2cc(N3CCCCC3)ccn2)CN(c2cccc(F)c2)C1                pKd  4.00 to 5.00
3  OC[C@@H]1C[C@H](Nc2cc(N3CCCCC3)ccn2)CN(c2cccc(F)c2)C1                pKd  4.00 to 5.00

Tested system DCAF1 WD40 domain (residues 1077-1390) (Homo sapiens, UniProt Q9Y4B6); pKd recorded for NC(=O)C[C@H](NC(=O)c1cn[nH]c1[C@@H]1CCCOC1)c1cccc(Cl)c1 was < 3.70

Tested system DCAF1 WD40 domain (residues 1077-1390) (Homo sapiens, UniProt Q9Y4B6); pKd recorded for Fc1cccc(N2CCC[C@@H](Nc3cc(N4C5CCCC4C5)ccn3)C2)c1 was > 5.00

----------
system_name: DCAF1 WD40 domain (residues 1077-1390) (Homo sapiens)
Construct: DCAF1 WD40 domain (residues 1077-1390)
method: DCAF1 binding assay by SPR (Biacore 8K+), DCAF1-3 KD
condition: 25 °C, read-out: DCAF1-3 SPR (KD)
pKd: −log10 of the molar value.
Listing of entries alongside the reported pKd.

> print(dat)
                                   compound  reported.endpoint     obs.value
1  C=CC(=O)NC1CC2(CCN(c3ccnc(N[C@@H]4CCCN(c5cccc(F)c5)C4)c3)CC2)C1                pKd        > 5.00
2  CN(c1ccnc(N[C@@H]2CCCN(c3cccc(F)c3)C2)c1)C1CCCCC1                pKd  4.00 to 5.00
3  NC(=O)C[C@@]1(NC(=O)c2c[nH]nc2-c2ccccc2F)CCCc2cc(Cl)ccc21                pKd        < 3.70

The reported pKd of the compound NCC1CC[C@@H](Nc2cc(N3CCCCC3)ccn2)CN1c1cccc(F)c1 (some centres unmarked) was 4.00 to 5.00

The reported pKd of the compound c1ccc(-n2cnc3cc(N4CCC[C@@H](Nc5cc(N6CCOCC6)ccn5)C4)ccc32)cc1 was < 3.70

The reported pKd of the compound NC(=O)C[C@H](NC(=O)c1c[nH]cc1-c1ccccc1F)c1ccccc1Cl was 4.00 to 5.00

The reported pKd of the compound Fc1cccc(N2CCC[C@@H](N3CCCc4c(N5CCCCC5)ccnc43)C2)c1 was < 3.70

The reported pKd of the compound Cc1cccc(F)c1-c1c(C(=O)N[C@@H](CC(N)=O)c2cccc(Cl)c2)c[nH]c1C#N was > 5.00

----------
Listing of entries alongside the reported Kd.
system_name: DCAF1 WD40 domain (residues 1077-1390) (Homo sapiens, UniProt Q9Y4B6)
Construct: DCAF1 WD40 domain (residues 1077-1390)
method: DCAF1 binding assay by SPR (Biacore 8K+), DCAF1-3 KD
condition: 25 °C, read-out: DCAF1-3 SPR (KD)

Recorded results for 5 compounds are shown here.
> print(dat)
                                   compound     obs.value
1  C=CC(=O)N1CC(N(C)c2ccnc(N[C@@H]3CCCN(c4cccc(F)c4)C3)c2)C1 [I-457]  10 to 100 µM
2  Cc1cccc(C(CC(N)=O)NC(=O)c2cn[nH]c2-c2ccccc2F)c1 (stereo not drawn) [I-331]      > 200 µM
3  c1cc(N2CCOCC2)cc(N[C@@H]2CCCN(c3ccc(OCCN4CCCC4)nc3)C2)n1 [I-677]  10 to 100 µM
4  Cc1ccc(C(=O)c2[nH]cc(C(=O)N[C@@H](CC(N)=O)c3cccc(Cl)c3)c2-c2c(C)cccc2F)cc1 [I-625]       < 10 µM
5  OC[C@H]1CC[C@@H](Nc2cc(N3CCCCC3)ccn2)CN1c1cccc(F)c1 [I-1008]  10 to 100 µM

Tested system DCAF1 WD40 domain (residues 1077-1390) (Homo sapiens, UniProt Q9Y4B6); Kd recorded for Cc1ccc(F)c(-c2[nH]ncc2C(=O)N[C@@H](CC(N)=O)c2cccc(Cl)c2)c1 [I-505] was < 10 µM

Tested system DCAF1 WD40 domain (residues 1077-1390) (Homo sapiens, UniProt Q9Y4B6); Kd recorded for Nc1cc(N[C@@H]2CCCN(c3cccc(F)c3)C2)cc(N2CCOCC2)c1 [I-538] was < 10 µM

Tested system DCAF1 WD40 domain (residues 1077-1390) (Homo sapiens, UniProt Q9Y4B6); Kd recorded for CN(c1cccc(F)c1)C1CCCN(c2cc(N3CCCCC3)ccn2)C1 (stereo not drawn) [I-660] was > 200 µM

Tested system DCAF1 WD40 domain (residues 1077-1390) (Homo sapiens, UniProt Q9Y4B6); Kd recorded for Fc1cccc(N2CCC[C@@H](Nc3cc(C4=CCCOC4)ccn3)C2)c1 [I-122] was > 200 µM

Tested system DCAF1 WD40 domain (residues 1077-1390) (Homo sapiens, UniProt Q9Y4B6); Kd recorded for COC(=O)c1cc(N2CCC[C@@H](Nc3cc(N4CCOCC4)ccn3)C2)cc2c1OCO2 [I-779] was > 200 µM

Tested system DCAF1 WD40 domain (residues 1077-1390) (Homo sapiens, UniProt Q9Y4B6); Kd recorded for N#Cc1ncccc1N1CCC[C@@H](Nc2cc(N3CCOCC3)ccn2)C1 [I-424] was > 200 µM

Tested system DCAF1 WD40 domain (residues 1077-1390) (Homo sapiens, UniProt Q9Y4B6); Kd recorded for Fc1cccc(N2CCC[C@H](Cc3cc(N4CCOCC4)ccn3)C2)c1 [I-98] was > 200 µM

----------
system_name: DCAF1 WD40 domain (residues 1077-1390) (Homo sapiens, UniProt Q9Y4B6)
Construct: DCAF1 WD40 domain (residues 1077-1390)
method: DCAF1 binding assay by SPR (Biacore 8K+), DCAF1-3 KD
condition: 25 °C, read-out: DCAF1-3 SPR (KD)
Listing of entries alongside the reported Kd.

Recorded results for 3 compounds are shown here.
> print(dat)
                                   compound  obs.value
1  Fc1cccc(N2CCC[C@@H](Oc3cc(N4CCOCC4)ccn3)C2)c1 [I-81]   > 200 µM
2  NC(=O)C[C@@]1(NC(=O)c2c[nH]nc2-c2ccccc2F)CCc2cc(Cl)ccc21 [I-242]   > 200 µM
3  Fc1cccc(N2CCC[C@@H](Nc3cccc(N4CCOCC4)c3)C2)c1 [I-380]   > 200 µM

# context switch: different compound, same Kd
The reported Kd of the compound Cc1c(F)ccc(F)c1-c1[nH]ncc1C(=O)N[C@@H](c1cccc(Cl)c1)[C@H]1CCOC1 [I-965] was 100 to 200 µM

----------
system_name: DCAF1 WD40 domain (residues 1077-1390) (Homo sapiens)
Construct: DCAF1 WD40 domain (residues 1077-1390)
method: DCAF1 binding assay by SPR (Biacore 8K+), DCAF1-3 KD
condition: 25 °C, read-out: DCAF1-3 SPR (KD)
pKd: −log10 of the molar value.
Listing of entries alongside the reported pKd.

molecule	pKd
Cc1ccc(S(=O)(=O)c2[nH]cc(C(=O)N[C@@H](CC(N)=O)c3cccc(Cl)c3)c2-c2c(F)ccc(F)c2C)cc1 [I-817]	> 5.00
Cc1sc2c(c1C)C(c1ccc(Cl)cc1)=N[C@@H](CC(=O)NCCOCCOCCOCCOCCOCC(=O)c1c(-c3c(F)ccc(F)c3C)c(C(=O)N[C@@H](CC(N)=O)c3cccc(Cl)c3)cn1C)c1nnc(C)n1-2 [I-912]	> 5.00
Cc1sc2c(c1C)C(c1ccc(Cl)cc1)=N[C@@H](CC(=O)NCCOCCOCCOCCOCCOCCOCCC1CCN(c3ccnc(N4CC[C@@H]5[C@H]4CCCN5c4cccc(F)c4)c3)CC1)c1nnc(C)n1-2 [I-895]	4.00 to 5.00
COCCOCCC1CN(c2cc(N3CCOCC3)ccn2)[C@H]2CCCN(c3cccc(F)c3)[C@@H]12 (stereo partly shown) [I-827]	> 5.00

The reported pKd of the molecule O=C1NCCN1Cc1cccc(N2CCC[C@H]3[C@@H]2CCN3c2cc(N3CCCCC3)ccn2)c1 [I-960] was > 5.00

The reported pKd of the molecule c1cc(N2CCCCC2)cc(N[C@@H]2CCC[C@H](C3CCCCC3)C2)n1 [I-751] was < 3.70

The reported pKd of the molecule N#Cc1cccc([C@H](CC(N)=O)NC(=O)c2c[nH]nc2-c2ccccc2F)c1 [I-117] was 4.00 to 5.00
